System: HeLa Kyoto
Assay: melting temperature (median over replicates), in situ; higher = more thermally stable
Conditions: cell cycle stage: G1/S

| residues | melting temperature |
| --- | --- |
| MAAAAAQGGGGGEPRRTEGVGPGVPGEVEMVKGQPFDVGPRYTQLQYIGEGAYGMVSSAYDHVRKTRVAIKKISPFEHQTYCQRTLREIQILLRFRHENVIGIRDILRASTLEAMRDVYIVQDLMETDLYKLLKSQQLSNDHICYFLYQILRGLKYIHSANVLHRDLKPSNLLINTTCDLKICDFGLARIADPEHDHTGFLTEYVATRWYRAPEIMLNSKGYTKSIDIWSVGCILAEMLSNRPIFPGKHYLDQLNHILGILGSPSQEDLNCIINMKARNYLQSLPSKTKVAWAKLFPKSDSKALDLLDRMLTFNPNKRITVEEALAHPYLEQYYDPTDEPVAEEPFTFAMELDDLPKERLKELIFQETARFQPGVLEAP [MAPK3] | 51.3 °C |
| MARHVFLTGPPGVGKTTLIHKASEVLKSSGVPVDGFYTEEVRQGGRRIGFDVVTLSGTRGPLSRVGLEPPPGKRECRVGQYVVDLTSFEQLALPVLRNADCSSGPGQRVCVIDEIGKMELFSQLFIQAVRQTLSTPGTIILGTIPVPKGKPLALVEEIRNRKDVKVFNVTKENRNHLLPDIVTCVQSSRK [NTPCR] | 52.6 °C |
| MGIQTSPVLLASLGVGLVTLLGLAVGSYLVRRSRRPQVTLLDPNEKYLLRLLDKTTVSHNTKRFRFALPTAHHTLGLPVGKHIYLSTRIDGSLVIRPYTPVTSDEDQGYVDLVIKVYLKGVHPKFPEGGKMSQYLDSLKVGDVVEFRGPSGLLTYTGKGHFNIQPNKKSPPEPRVAKKLGMIAGGTGITPMLQLIRAILKVPEDPTQCFLLFANQTEKDIILREDLEELQARYPNRFKLWFTLDHPPKDWAYSKGFVTADMIREHLPAPGDDVLVLLCGPPPMVQLACHPNLDKLGYSQKMRFTY [CYB5R1] | 54.1 °C |
| MFRAAAPGQLRRAASLLRFQSTLVIAEHANDSLAPITLNTITAATRLGGEVSCLVAGTKCDKVAQDLCKVAGIAKVLVAQHDVYKGLLPEELTPLILATQKQFNYTHICAGASAFGKNLLPRVAAKLEVAPISDIIAIKSPDTFVRTIYAGNALCTVKCDEKVKVFSVRGTSFDAAATSGGSASSEKASSTSPVEISEWLDQKLTKSDRPELTGAKVVVSGGRGLKSGENFKLLYDLADQLHAAVGASRAAVDAGFVPNDMQVGQTGKIVAPELYIAVGISGAIQHLAGMKDSKTIVAINKDPEAPIFQVADYGIVADLFKVVPEMTEILKKK [ETFA] | 54.1 °C |
| MESGAYGAAKAGGSFDLRRFLTQPQVVARAVCLVFALIVFSCIYGEGYSNAHESKQMYCVFNRNEDACRYGSAIGVLAFLASAFFLVVDAYFPQISNATDRKYLVIGDLLFSALWTFLWFVGFCFLTNQWAVTNPKDVLVGADSVRAAITFSFFSIFSWGVLASLAYQRYKAGVDDFIQNYVDPTPDPNTAYASYPGASVDNYQQPPFTQNAETTEGYQPPPVY [SYNGR2] | 54.9 °C |

* * *

System: HeLa Kyoto
Assay: melting temperature (median over replicates), in situ; higher = more thermally stable
Conditions: cell cycle stage: mitosis
measurement_type: melting temperature (°C)

| residues | target_of_assay | measurement_type | reported_value |
| --- | --- | --- | --- |
| MDDLCEANGTFAISLFKILGEEDNSRNVFFSPMSISSALAMVFMGAKGSTAAQMSQALCLYKDGDIHRGFQSLLSEVNRTGTQYLLRTANRLFGEKTCDFLPDFKEYCQKFYQAELEELSFAEDTEECRKHINDWVAEKTEGKISEVLDAGTVDPLTKLVLVNAIYFKGKWNEQFDRKYTRGMLFKTNEEKKTVQMMFKEAKFKMGYADEVHTQVLELPYVEEELSMVILLPDDNTDLAVVEKALTYEKFKAWTNSEKLTKSKVQVFLPRLKLEESYDLEPFLRRLGMIDAFDEAKADFSGMSTEKNVPLSKVAHKCFVEVNEEGTEAAAATAVVRNSRCSRMEPRFCADHPFLFFIRHHKTNCILFCGRFSSP [SERPINB8] | HeLa Kyoto | melting temperature | 54.2 |

* * *

Recorded measurements of solubility change mitosis (log2), one per entry
System: HeLa Kyoto
Assay: solubility change mitosis vs G1/S (difference of NP-40 vs SDS log2 ratios) (log2 ratio difference); higher = more soluble in mitosis
measurement_type: solubility change mitosis (log2)

| residues | reported_value |
| --- | --- |
| MASPSRRLQTKPVITCFKSVLLIYTFIFWITGVILLAVGIWGKVSLENYFSLLNEKATNVPFVLIATGTVIILLGTFGCFATCRASAWMLKLYAMFLTLVFLVELVAAIVGFVFRHEIKNSFKNNYEKALKQYNSTGDYRSHAVDKIQNTLHCCGVTDYRDWTDTNYYSEKGFPKSCCKLEDCTPQRDADKVNNEGCFIKVMTIIESEMGVVAGISFGVACFQLIGIFLAYCLSRAITNNQYEIV [TSPAN6] | 2.55e-05 |
| MGCDGGTIPKRHELVKGPKKVEKVDKDAELVAQWNYCTLSQEILRRPIVACELGRLYNKDAVIEFLLDKSAEKALGKAASHIKSIKNVTELKLSDNPAWEGDKGNTKGDKHDDLQRARFICPVVGLEMNGRHRFCFLRCCGCVFSERALKEIKAEVCHTCGAAFQEDDVIMLNGTKEDVDVLKTRMEERRLRAKLEKKTKKPKAAESVSKPDVSEEAPGPSKVKTGKPEEASLDSREKKTNLAPKSTAMNESSSGKAGKPPCGATKRSIADSEESEAYKSLFTTHSSAKRSKEESAHWVTHTSYCF [RTFDC1] | -0.0475 |
| MDDKELIEYFKSQMKEDPDMASAVAAIRTLLEFLKRDKGETIQGLRANLTSAIETLCGVDSSVAVSSGGELFLRFISLASLEYSDYSKCKKIMIERGELFLRRISLSRNKIADLCHTFIKDGATILTHAYSRVVLRVLEAAVAAKKRFSVYVTESQPDLSGKKMAKALCHLNVPVTVVLDAAVGYIMEKADLVIVGAEGVVENGGIINKIGTNQMAVCAKAQNKPFYVVAESFKFVRLFPLNQQDVPDKFKYKADTLKVAQTGQDLKEEHPWVDYTAPSLITLLFTDLGVLTPSAVSDELIKLYL [EIF2B1] | -0.134 |
| MELSAVGERVFAAEALLKRRIRKGRMEYLVKWKGWSQKYSTWEPEENILDARLLAAFEEREREMELYGPKKRGPKPKTFLLKAQAKAKAKTYEFRSDSARGIRIPYPGRSPQDLASTSRAREGLRNMGLSPPASSTSTSSTCRAEAPRDRDRDRDRDRERDRERERERERERERERERERGTSRVDDKPSSPGDSSKKRGPKPRKELPDPSQRPLGEPSAGLGEYLKGRKLDDTPSGAGKFPAGHSVIQLARRQDSDLVQCGVTSPSSAEATGKLAVDTFPARVIKHRAAFLEAKGQGALDPNGTRVRHGSGPPSSGGGLYRDMGAQGGRPSLIARIPVARILGDPEEESWSPSLTNLEKVVVTDVTSNFLTVTIKESNTDQGFFKEKR [CBX8] | 0.612 |
| MEVKPPPGRPQPDSGRRRRRRGEEGHDPKEPEQLRKLFIGGLSFETTDDSLREHFEKWGTLTDCVVMRDPQTKRSRGFGFVTYSCVEEVDAAMCARPHKVDGRVVEPKRAVSREDSVKPGAHLTVKKIFVGGIKEDTEEYNLRDYFEKYGKIETIEVMEDRQSGKKRGFAFVTFDDHDTVDKIVVQKYHTINGHNCEVKKALSKQEMQSAGSQRGRGGGSGNFMGRGGNFGGGGGNFGRGGNFGGRGGYGGGGGGSRGSYGGGDGGYNGFGGDGGNYGGGPGYSSRGGYGGGGPGYGNQGGGYGGGGGYDGYNEGGNFGGGNYGGGGNYNDFGNYSGQQQSNYGPMKGGSFGGRSSGSPYGGGYGSGGGSGGYGSRRF [HNRNPA3] | 0.411 |

* * *

Tested on: HeLa Kyoto
Assay: thermal stability score vs G1/S (z-score of summed log2 fold changes over temperatures); higher = more thermally stable than in G1/S
Settings: cell cycle stage: early G1 (4.5 h after nocodazole release)
Quick reference: thermal stability score of the listed items.
measurement_type: thermal stability score

| residues | reported_value |
| --- | --- |
| MSDTAVADTRRLNSKPQDLTDAYGPPSNFLEIDIFNPQTVGVGRARFTTYEVRMRTNLPIFKLKESCVRRRYSDFEWLKNELERDSKIVVPPLPGKALKRQLPFRGDEGIFEESFIEERRQGLEQFINKIAGHPLAQNERCLHMFLQEEAIDRNYVPGKVRQ [SNX12] | -0.501 |
| MCDFTEDQTAEFKEAFQLFDRTGDGKILYSQCGDVMRALGQNPTNAEVLKVLGNPKSDEMNVKVLDFEHFLPMLQTVAKNKDQGTYEDYVEGLRVFDKEGNGTVMGAEIRHVLVTLGEKMTEEEVEMLVAGHEDSNGCINYEAFVRHILSG [MYL6] | -3.33 |
| MGSRASTLLRDEELEEIKKETGFSHSQITRLYSRFTSLDKGENGTLSREDFQRIPELAINPLGDRIINAFFPEGEDQVNFRGFMRTLAHFRPIEDNEKSKDVNGPEPLNSRSNKLHFAFRLYDLDKDEKISRDELLQVLRMMVGVNISDEQLGSIADRTIQEADQDGDSAISFTEFVKVLEKVDVEQKMSIRFLH [CHP1] | -0.997 |
| MIVQRVVLNSRPGKNGNPVAENFRMEEVYLPDNINEGQVQVRTLYLSVDPYMRCRMNEDTGTDYITPWQLSQVVDGGGIGIIEESKHTNLTKGDFVTSFYWPWQTKVILDGNSLEKVDPQLVDGHLSYFLGAIGMPGLTSLIGIQEKGHITAGSNKTMVVSGAAGACGSVAGQIGHFLGCSRVVGICGTHEKCILLTSELGFDAAINYKKDNVAEQLRESCPAGVDVYFDNVGGNISDTVISQMNENSHIILCGQISQYNKDVPYPPPLSPAIEAIQKERNITRERFLVLNYKDKFEPGILQLSQWFKEGKLKIKETVINGLENMGAAFQSMMTGGNIGKQIVCISEEISL [PTGR2] | 0.0557 |
| MALLFARSLRLCRWGAKRLGVASTEAQRGVSFKLEEKTAHSSLALFRDDTGVKYGLVGLEPTKVALNVERFREWAVVLADTAVTSGRHYWEVTVKRSQQFRIGVADVDMSRDSCIGVDDRSWVFTYAQRKWYTMLANEKAPVEGIGQPEKVGLLLEYEAQKLSLVDVSQVSVVHTLQTDFRGPVVPAFALWDGELLTHSGLEVPEGL [SPRYD4] | -1.47 |
| MDLFGDLPEPERSPRPAAGKEAQKGPLLFDDLPPASSTDSGSGGPLLFDDLPPASSGDSGSLATSISQMVKTEGKGAKRKTSEEEKNGSEELVEKKVCKASSVIFGLKGYVAERKGEREEMQDAHVILNDITEECRPPSSLITRVSYFAVFDGHGGIRASKFAAQNLHQNLIRKFPKGDVISVEKTVKRCLLDTFKHTDEEFLKQASSQKPAWKDGSTATCVLAVDNILYIANLGDSRAILCRYNEESQKHAALSLSKEHNPTQYEERMRIQKAGGNVRDGRVLGVLEVSRSIGDGQYKRCGVTSVPDIRRCQLTPNDRFILLACDGLFKVFTPEEAVNFILSCLEDEKIQTREGKSAADARYEAACNRLANKAVQRGSADNVTVMVVRIGH [ILKAP] | 0.735 |
| MSRYGRYGGETKVYVGNLGTGAGKGELERAFSYYGPLRTVWIARNPPGFAFVEFEDPRDAEDAVRGLDGKVICGSRVRVELSTGMPRRSRFDRPPARRPFDPNDRCYECGEKGHYAYDCHRYSRRRRSRSRSRSHSRSRGRRYSRSRSRSRGRRSRSASPRRSRSISLRRSRSASLRRSRSGSIKGSRYFQSPSRSRSRSRSISRPRSSRSKSRSPSPKRSRSPSGSPRRSASPERMD [SRSF7] | -4.9 |
| MAQTPAFDKPKVELHVHLDGSIKPETILYYGRRRGIALPANTAEGLLNVIGMDKPLTLPDFLAKFDYYMPAIAGCREAIKRIAYEFVEMKAKEGVVYVEVRYSPHLLANSKVEPIPWNQAEGDLTPDEVVALVGQGLQEGERDFGVKARSILCCMRHQPNWSPKVVELCKKYQQQTVVAIDLAGDETIPGSSLLPGHVQAYQEAVKSGIHRTVHAGEVGSAEVVKEAVDILKTERLGHGYHTLEDQALYNRLRQENMHFEICPWSSYLTGAWKPDTEHAVIRLKNDQANYSLNTDDPLIFKSTLDTDYQMTKRDMGFTEEEFKRLNINAAKSSFLPEDEKRELLDLLYKAYGMPPSASAGQNL [ADA] | -1.89 |
| MSNMEKHLFNLKFAAKELSRSAKKCDKEEKAEKAKIKKAIQKGNMEVARIHAENAIRQKNQAVNFLRMSARVDAVAARVQTAVTMGKVTKSMAGVVKSMDATLKTMNLEKISALMDKFEHQFETLDVQTQQMEDTMSSTTTLTTPQNQVDMLLQEMADEAGLDLNMELPQGQTGSVGTSVASAEQDELSQRLARLRDQV [CHMP1B] | 0.0467 |
| MASKRALVILAKGAEEMETVIPVDVMRRAGIKVTVAGLAGKDPVQCSRDVVICPDASLEDAKKEGPYDVVVLPGGNLGAQNLSESAAVKEILKEQENRKGLIAAICAGPTALLAHEIGFGSKVTTHPLAKDKMMNGGHYTYSENRVEKDGLILTSRGPGTSFEFALAIVEALNGKEVAAQVKAPLVLKD [PARK7] | 1.01 |
| MAPQNLSTFCLLLLYLIGAVIAGRDFYKILGVPRSASIKDIKKAYRKLALQLHPDRNPDDPQAQEKFQDLGAAYEVLSDSEKRKQYDTYGEEGLKDGHQSSHGDIFSHFFGDFGFMFGGTPRQQDRNIPRGSDIIVDLEVTLEEVYAGNFVEVVRNKPVARQAPGKRKCNCRQEMRTTQLGPGRFQMTQEVVCDECPNVKLVNEERTLEVEIEPGVRDGMEYPFIGEGEPHVDGEPGDLRFRIKVVKHPIFERRGDDLYTNVTISLVESLVGFEMDITHLDGHKVHISRDKITRPGAKLWKKGEGLPNFDNNNIKGSLIITFDVDFPKEQLTEEAREGIKQLLKQGSVQKVYNGLQGY [DNAJB11] | 3 |
